Species: Rattus norvegicus
Experiment: Open TG-GATES - Regimen: Daily Repeat
Format: toxicity, organism-based, Sprague-Dawley
Design: regimen Daily Repeat, gender Male, age 6 weeks
Details: in vivo, po, 0 mg/kg, […], tissue Plasma, route gavage, dose level Control, time 28 day
Binary classification by BUN, with 20 mg/dL as an inclusive lower bound for satisfied; all other cases are not satisfied.

CN(C)CCC=C1c2ccccc2CCc2ccccc21 [AMITRIPTYLINE] | not satisfied

Please tell me: is the compound COc1ccc2c(c1)c(CC(=O)O)c(C)n2C(=O)c1ccc(Cl)cc1 [INDOMETHACIN] at or over 20 mg/dL in terms of BUN?
not satisfied

Please tell me: is the compound O=C(O)c1cc(/N=N/c2ccc(S(=O)(=O)Nc3ccccn3)cc2)ccc1O [SULFASALAZINE] at or over 20 mg/dL in terms of BUN?
not satisfied

Please tell me: is the compound O=C(O)c1cn(C2CC2)c2cc(N3CCNCC3)c(F)cc2c1=O [CIPROFLOXACIN] at or over 20 mg/dL in terms of BUN?
not satisfied

Please tell me: is the compound CCCC(CCC)C(=O)O [VALPROIC ACID] at or over 20 mg/dL in terms of BUN?
not satisfied

Please tell me: is the compound CCc1cc(C(N)=S)ccn1 [ETHIONAMIDE] at or over 20 mg/dL in terms of BUN?
satisfied
